This section presents compounds with their documented GI50 values.
System: MDA-MB-231
Experiment: NCI tumour cell line growth inhibition, 48 h
Active and inactive are the calls of the source. Rule as the data show it: active = GI50 up to about 1.1 µM and inactive = higher.
RESULT_TYPE: GI50

[
  {
    "COMPOUND": "CCC(C#N)N(Cc1cccc(CN(C(C)=O)C(C#N)CC)c1)C(C)=O (stereo not drawn)",
    "EXPERIMENTAL_TARGET": "MDA-MB-231",
    "RESULT": "46.6 µM (inactive)"
  },
  {
    "COMPOUND": "CCOC(=O)COc1ccc(/C=C/C(=O)c2ccc(OC)cc2)cc1",
    "EXPERIMENTAL_TARGET": "MDA-MB-231",
    "RESULT": "37.6 µM (inactive)"
  },
  {
    "COMPOUND": "NCCN1C(=O)c2cc(Cl)c(Cl)cc2C1(O)c1ccc(Cl)cc1 (stereo not drawn)",
    "EXPERIMENTAL_TARGET": "MDA-MB-231",
    "RESULT": "2.01 µM (inactive)"
  }
]

----------
Tested on: RXF 393
Test: NCI tumour cell line growth inhibition, 48 h
Calls of active or inactive are those of the source. Rule as the data show it: active = GI50 up to about 1.1 µM and inactive = higher.

[
  {
    "COMPOUND": "N#Cc1nc(-c2cccs2)oc1N",
    "GI50": "> 100 µM (inactive)"
  },
  {
    "COMPOUND": "C[C@]12C[C@H](c3ccccc3)Nc3ccccc3N1C(c1ccccc1)=NO2",
    "GI50": "> 100 µM (inactive)"
  },
  {
    "COMPOUND": "CN(C)c1nc(Oc2nc(N(C)C)nc(N(C)C)n2)nc(N(C)C)n1",
    "GI50": "> 100 µM (inactive)"
  },
  {
    "COMPOUND": "c1ccc(COCC23CCN(Cc4ccccc4)C(CC(OCc4ccccc4)C2)S3)cc1 (centres undefined)",
    "GI50": "> 100 µM (inactive)"
  },
  {
    "COMPOUND": "C1=C(c2ccccc2)SC=C(c2ccccc2)S1",
    "GI50": "1.05 µM (active)"
  },
  {
    "COMPOUND": "NC(CC1=CS(=O)(=O)c2ccc(Cl)cc21)C(=O)O (centres undefined)",
    "GI50": "> 100 µM (inactive)"
  },
  {
    "COMPOUND": "N#Cc1c2c(c(N=P(c3ccccc3)(c3ccccc3)c3ccccc3)n3c1nc1ccccc13)CCCC2",
    "GI50": "46.2 µM (inactive)"
  },
  {
    "COMPOUND": "CCCCCCCCCCCc1c(O)c(=O)c2c(oc3c(=O)c(CCCCCCCCCCC)c(O)c(=O)c3n2-c2ccc(N(C)C)cc2)c1=O",
    "GI50": "25 µM (inactive)"
  },
  {
    "COMPOUND": "CC[C@@]1(C[C@H]2C[C@@]3(C(=O)OC)c4[nH]c5ccccc5c4CCN3C2=O)COC2(CCCCC2)O1",
    "GI50": "19.5 µM (inactive)"
  },
  {
    "COMPOUND": "O=C1C2=C(C(c3ccccc3)=C1c1ccccc1)c1ccccc1C1(c3ccccc3)C2=C(O)C(c2ccccc2)=C1c1ccccc1 (centres undefined)",
    "GI50": "> 100 µM (inactive)"
  },
  {
    "COMPOUND": "O=C(NC1CCN(Cc2ccccc2)CC1)c1ccc(I)cc1",
    "GI50": "25.2 µM (inactive)"
  },
  {
    "COMPOUND": "CSCSCC(CO)NC(=O)/C(C)=C\\c1c(C)[nH]c(=O)[nH]c1=O (centres undefined)",
    "GI50": "> 250 µM (inactive)"
  },
  {
    "COMPOUND": "O=S1(=O)c2ccccc2Oc2ccc(C(/C=N/O)=N/O)cc21",
    "GI50": "15.5 µM (inactive)"
  },
  {
    "COMPOUND": "CCN(CC)Cc1ccc(Nc2c3ccccc3nc3ccccc23)cc1",
    "GI50": "1.72 µM (inactive)"
  }
]
